These measurements were taken from patent US20220177594A1.

TARGET DESC: T1, canine OSMR on canine cells (canine, UniProt A0A8I3MI11 28-967)
T1 sequence: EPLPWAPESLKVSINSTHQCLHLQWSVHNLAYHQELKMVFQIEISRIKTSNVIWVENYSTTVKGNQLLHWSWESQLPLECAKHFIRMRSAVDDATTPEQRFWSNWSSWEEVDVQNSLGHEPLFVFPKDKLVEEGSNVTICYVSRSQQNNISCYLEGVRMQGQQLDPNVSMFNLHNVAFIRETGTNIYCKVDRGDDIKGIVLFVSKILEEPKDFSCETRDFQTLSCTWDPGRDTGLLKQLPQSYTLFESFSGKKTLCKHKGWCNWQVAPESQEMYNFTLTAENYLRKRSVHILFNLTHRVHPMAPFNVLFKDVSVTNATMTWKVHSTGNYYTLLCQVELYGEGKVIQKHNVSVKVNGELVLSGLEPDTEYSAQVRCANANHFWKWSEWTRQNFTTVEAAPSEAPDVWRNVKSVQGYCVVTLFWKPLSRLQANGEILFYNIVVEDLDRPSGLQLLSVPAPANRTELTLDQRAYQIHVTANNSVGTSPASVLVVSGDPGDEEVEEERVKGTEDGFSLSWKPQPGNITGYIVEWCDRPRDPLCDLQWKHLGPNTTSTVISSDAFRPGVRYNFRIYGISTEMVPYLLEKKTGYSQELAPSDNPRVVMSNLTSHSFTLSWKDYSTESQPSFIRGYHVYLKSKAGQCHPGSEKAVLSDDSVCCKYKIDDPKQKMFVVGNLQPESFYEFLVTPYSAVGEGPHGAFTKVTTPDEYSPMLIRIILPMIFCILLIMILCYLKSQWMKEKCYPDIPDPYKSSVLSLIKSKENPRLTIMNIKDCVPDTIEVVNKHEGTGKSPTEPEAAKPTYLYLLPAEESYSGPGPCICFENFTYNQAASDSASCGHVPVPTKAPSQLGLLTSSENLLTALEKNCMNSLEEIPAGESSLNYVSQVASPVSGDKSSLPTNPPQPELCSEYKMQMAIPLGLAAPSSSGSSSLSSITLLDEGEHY
TEST METHOD NOTES: cell-based or functional assay
PARAMETER: IC50, inhibition of canine OSM pSTAT3 signaling, canine DH82 cells

Reference set (3 entries):
| BINDER | ASSAY VALUE |
| --- | --- |
| mouse: canine 10F07 chimera (antibody, V domains shown, Mouse variable domains on canine IgG constant regions; also called 10F07 (Mouse:Canine); mouse:dog chimera 10F07) VH: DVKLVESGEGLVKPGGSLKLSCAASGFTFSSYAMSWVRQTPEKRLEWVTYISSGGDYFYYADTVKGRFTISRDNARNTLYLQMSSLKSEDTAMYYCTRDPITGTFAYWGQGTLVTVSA VL: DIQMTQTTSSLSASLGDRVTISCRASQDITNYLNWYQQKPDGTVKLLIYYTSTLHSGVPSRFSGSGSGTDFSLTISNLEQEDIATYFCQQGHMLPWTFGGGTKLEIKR | 0.16 µg/ml |
| Mu_10F07 (antibody, V domains shown, Mouse hybridoma IgG) VH: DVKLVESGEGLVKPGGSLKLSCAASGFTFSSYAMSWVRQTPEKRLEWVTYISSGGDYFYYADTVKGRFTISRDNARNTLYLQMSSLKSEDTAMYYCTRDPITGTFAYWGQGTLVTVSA VL: DIQMTQTTSSLSASLGDRVTISCRASQDITNYLNWYQQKPDGTVKLLIYYTSTLHSGVPSRFSGSGSGTDFSLTISNLEQEDIATYFCQQGHMLPWTFGGGTKLEIK | 0.05 µg/ml |
| Mu_02D09 (antibody, V domains shown, Mouse hybridoma IgG; also called mouse anti-OSMR 02D09) VH: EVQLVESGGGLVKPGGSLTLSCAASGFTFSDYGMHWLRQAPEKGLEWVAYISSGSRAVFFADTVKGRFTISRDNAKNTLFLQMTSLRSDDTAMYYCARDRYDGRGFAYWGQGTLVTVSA VL: DIVLTQSPATLSVTPGDSVSLSCRASQSISNNLHWYQQTSHESPRLLITYASQSISGIPSRFSGSGSGTDFTLSINSVETEDFGMYFCQQSNSWPLTFGAGTKLELK | > 50 µg/ml |

Next, consider the following binder.
Request: What IC50, inhibition of canine OSM pSTAT3 signaling, canine DH82 cells value was documented for this binder, Mu_14C04 (antibody, V domains shown, Mouse hybridoma IgG) VH: EVQLQESGAELVKPGASVKISCKASGYAFSNYWMNWMKQRPGKGLEWIGQIYPGHVNTNYNGNFKDKATLTADKSSSTAYMQLSSLTSEDSAVYFCARSADNSGFVLFAYWGQGTLVTVS VL: DIVLTQSPASLAVSLGQRATISCRASKSVSTSGYSYLHWYQQKPGQPPKLLIFLASNLESGVPARFSGSGSGTDFTLNIHPVEEEDAATYYCQHSRELPLTFGAGTKLELK ?
Result: 8.64 µg/ml
